System: RPMI-8226 leukemia
ASSAY_PROTOCOL: NCI-60 one-dose screen, 48 h
RUN_CONDITIONS: 10 µM unless noted
About 83,000 compounds went through this panel and 20% of them were active in at least one assay; those are over-represented in the sample as a whole. Active and inactive are the calls of the source. How the source made its calls: active means growth percent below 10; inactive means the rest.
The reply should name one outcome from true (1) = active, false (0) = inactive

GET /call?item= CCC(C)(C)c1ccc(Nc2ccc(Nc3ccc(C(C)(C)CC)cc3)cc2)cc1 returns the recorded outcome of this test.
false (0)

GET /call?item= COc1cc(/C=C/c2cc(/C=C/c3ccc(O)c(OC)c3)n(C(=O)Nc3ccc(Cl)cc3)n2)ccc1O returns the recorded outcome of this test.
true (1)

GET /call?item= CC(C)(C)OC(=O)CN1CCc2c(sc3ncnc(N4CCN(c5ccc(F)cc5)CC4)c23)C1 returns the recorded outcome of this test.
false (0)

GET /call?item= COc1cc(/C=C/c2cn[nH]c2-c2ccc(C)cc2)cc(OC)c1OC returns the recorded outcome of this test.
false (0)

GET /call?item= C#CCOc1cccc(Nc2ncnc3c2ncn3C2CCN(C(=O)CCl)C2)c1 (stereo not given) returns the recorded outcome of this test.
true (1)

GET /call?item= Cc1c(C(C)(C)O)cn2ncnc(Oc3ccc(NC(=O)Nc4ccc(Cl)c(C(F)(F)F)c4)c(F)c3)c12 returns the recorded outcome of this test.
false (0)

GET /call?item= Oc1nc(NCc2ccccc2)sc1/C=C1\C=Nc2ncccc21 returns the recorded outcome of this test.
false (0)

GET /call?item= O=S(=O)(Nc1cc(Sc2nc3ccccc3s2)c(O)c2ccccc12)c1ccc2ccccc2c1 returns the recorded outcome of this test.
false (0)

GET /call?item= OC1(c2ccccc2)c2ccccc2N(c2ccccc2)c2ccc(Cl)cc21 (stereo not given) returns the recorded outcome of this test.
true (1)

GET /call?item= OC1CSSC1Cn1cnc2c(Nc3ccc(OCc4cccc(F)c4)c(Cl)c3)ncnc21 (stereo not given) returns the recorded outcome of this test.
true (1)

GET /call?item= CSc1ccc2c3c(n(CCCn4ccnc4)c(=O)c2c1)-c1ccccc1C3=O returns the recorded outcome of this test.
false (0)

GET /call?item= O=C(CSc1nnnn1-c1ccccc1)Nc1ccc(Oc2ccccc2)cc1 returns the recorded outcome of this test.
false (0)

GET /call?item= CNC(=O)c1cc(Oc2ccc3c(c2)sc2nc(-c4ccc(Cl)c(C(F)(F)F)c4)cn23)ccn1 returns the recorded outcome of this test.
false (0)

GET /call?item= COC(=O)[C@@]12CC=C(C)[C@]3(C[C@H](c4ccoc4)OC3=O)[C@H]1C=C[C@@H](O)[C@@]2(O)C(=O)OC returns the recorded outcome of this test.
false (0)

GET /call?item= COc1cc(N2C(=O)[C@H](Cl)C2c2ccc(SC)cc2)cc(OC)c1OC (stereo not given in full) returns the recorded outcome of this test.
true (1)

GET /call?item= Cc1sc2nc(NCCN)[nH]c(=O)c2c1C returns the recorded outcome of this test.
false (0)

GET /call?item= CCCCCCCCCCCCCCCCCCOc1ccccc1CC(=O)NCC[N+](C)(C)C returns the recorded outcome of this test.
false (0)

GET /call?item= COc1ccc2cc(C(=O)N3CCC([C@@H](C)C(=O)NCc4ccc5c(c4)OCO5)CC3)[nH]c2c1 returns the recorded outcome of this test.
false (0)

GET /call?item= COc1cc(C=Nc2oc(-c3ccccc3)c(-c3ccccc3)c2C#N)cc(CN2CCCC2)c1O returns the recorded outcome of this test.
false (0)

GET /call?item= C#Cc1cccc(NC(=O)C2CCCCN2C(=O)CCl)c1 (stereo not given) returns the recorded outcome of this test.
true (1)
